- experiment.description: NCI Yeast Anticancer Drug Screen. Data for the sgs1 mgt1 strain (AID 161);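 also: 0% = growth of cultures given vehicle only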
- conditions.used: S. cerevisiae sgs1 mgt1 strain, at 50.0 µM, active compounds read high
This is part of a sample that, as a whole, favours compounds with a hit. Of some 79,000 tested, about 15% had one in any assay. Calls of active or inactive are those of the source. Rule as the data show it: active = growth inhibition above about 70%; inactive = the rest.
Some compounds, each annotated with its measured growth inhibition.

INSERT INTO assay_data (compound, reported_property, reported_measurement) VALUES
  ('CC1(c2cccc3c2C2(O)C=CC4(CCC32)OCCO4)OCCO1 (stereo not drawn)', 'growth inhibition', '-55.8% (inactive)');

Reported growth inhibition of `CCN(CC)Cc1cc(N)cc(N=Nc2ccc3c(c2)c2ccccc2n3CC)c1O` : 12.4% (inactive)

Kindly note the recorded growth inhibition for `Cc1nc2ccccc2c(=O)n1NC(=S)Nc1cccc(Cl)c1` , which is 28.1% (inactive)

Reported growth inhibition of `CCOC(=O)c1c2c(c(-c3ccccc3)n1C)C(=O)C(C)=C(C)C2=O` : -10.2% (inactive)

What the record says about `Cc1c(C)c(CSC#N)c(C)c(C)c1CSC#N` : growth inhibition is -10.1% (inactive)

Summary for this compound, `Cc1nc2c(ccc3cc4ccccc4cc32)cc1N(CCO)CCO` : growth inhibition is -0.15% (inactive)
